Every entry's value here was drawn from ChEMBL document CHEMBL5030529.

# experimentNotes: Hemolytic activity in horse RBC assessed as hemolysis at 250 uM relative to control
# Format: ADME, tissue-based, Equus caballus
# conditionLabel: erythrocyte
testReadout: Activity
Answer as a quantity: numeral, then unit.

Item H-RPFTRAQWFAIQHISPRTIAMRAINNYRWR-OH : provide Activity 44%
